Test: self-splicing fitness, log relative to wild type (ln ratio); higher = more splicing; Tetrahymena group I intron in knt gene, E. coli kanamycin selection, DiMSum; sequences stand for … in CUCUCU…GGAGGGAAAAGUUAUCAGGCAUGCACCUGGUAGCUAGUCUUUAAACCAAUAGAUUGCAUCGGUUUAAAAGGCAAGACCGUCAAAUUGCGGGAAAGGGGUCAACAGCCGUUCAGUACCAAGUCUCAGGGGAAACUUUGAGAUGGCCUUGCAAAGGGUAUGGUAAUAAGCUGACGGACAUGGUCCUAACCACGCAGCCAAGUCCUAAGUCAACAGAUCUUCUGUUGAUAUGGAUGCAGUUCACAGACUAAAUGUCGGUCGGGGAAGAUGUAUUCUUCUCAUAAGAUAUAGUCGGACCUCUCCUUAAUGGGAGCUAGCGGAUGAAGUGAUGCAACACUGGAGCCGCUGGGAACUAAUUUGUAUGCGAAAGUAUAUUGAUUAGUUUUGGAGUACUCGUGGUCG;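 further: selection with 25 µg/mL kanamycin versus none on LB agar overnight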
Conditions: 30 °C
assay_readout: self-splicing fitness (ln)
Response field accepts a number only; no unit should be typed.

A selection of reference data follows.
polymer_sequence: UCGUAGCAAUAUUACGGCUG
self-splicing fitness (ln): -3.29

polymer_sequence: AAACAGCAAUAUUACGCAGC
self-splicing fitness (ln): -1.83

polymer_sequence: AAAUAGCAAUAUUACGGUAU
self-splicing fitness (ln): -1.69

polymer_sequence: AAGUAGCAAUAUUACGUAAC
self-splicing fitness (ln): -1.51

polymer_sequence: UUGUAGCAAUAUUACGAAGU
self-splicing fitness (ln): -2.54

polymer_sequence: AUCCAGCAAUAUUACGGGAA
self-splicing fitness (ln): -1.17

**Query** Param item = UCGAAGCAAUAUUACGGACG ; retrieve measured self-splicing fitness (ln).
**Result** -0.371

**Query** Param item = GUAAAGCAAUAUUACGAAGC ; retrieve measured self-splicing fitness (ln).
**Result** -1.89

----------
Each item that follows carries a reported self-splicing fitness (ln).
Assay: self-splicing fitness, log relative to wild type (ln ratio); higher = more splicing; Tetrahymena group I intron in knt gene, E. coli kanamycin selection, DiMSum; sequences stand for … in CUCUCU…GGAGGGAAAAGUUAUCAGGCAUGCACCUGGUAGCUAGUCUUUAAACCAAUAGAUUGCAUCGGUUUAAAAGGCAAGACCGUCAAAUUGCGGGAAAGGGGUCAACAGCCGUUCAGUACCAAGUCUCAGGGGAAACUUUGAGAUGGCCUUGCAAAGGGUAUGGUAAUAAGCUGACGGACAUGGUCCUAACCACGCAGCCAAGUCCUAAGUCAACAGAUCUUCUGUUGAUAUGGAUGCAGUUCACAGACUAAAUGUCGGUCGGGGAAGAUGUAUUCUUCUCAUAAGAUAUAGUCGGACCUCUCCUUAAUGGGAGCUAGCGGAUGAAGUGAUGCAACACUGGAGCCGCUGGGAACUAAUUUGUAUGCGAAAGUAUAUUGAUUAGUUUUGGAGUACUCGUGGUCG
Conditions: 30 °C
Response field accepts a number only; no unit should be typed.

A selection of reference data follows.
polymer_sequence: UAGUAGCAAUAUUACGGAUU
test_value: -4.06
--
polymer_sequence: UCUAAGCAAUAUUACGCCUU
test_value: -3.44
--
polymer_sequence: UAAUAGCAAUAUUACGUGAA
test_value: -1.38
--
polymer_sequence: CGCUAGCAAUAUUACGUGCA
test_value: -0.672
--
polymer_sequence: GGCAAGCAAUAUUACGAUUU
test_value: -0.299

**Query** Param item = AUUUAGCAAUAUUACGGAGC ; retrieve measured self-splicing fitness (ln).
**Result** -3.49

**Query** Param item = CCCAAGCAAUAUUACGAGAG ; retrieve measured self-splicing fitness (ln).
**Result** -2.99

**Query** Param item = GGUAAGCAAUAUUACGCGAG ; retrieve measured self-splicing fitness (ln).
**Result** -2.95

**Query** Param item = AAGCAGCAAUAUUACGAACC ; retrieve measured self-splicing fitness (ln).
**Result** -2.26

**Query** Param item = CGGUAGCAAUAUUACGUGUA ; retrieve measured self-splicing fitness (ln).
**Result** -3.31

**Query** Param item = CCCCAGCAAUAUUACGUUGU ; retrieve measured self-splicing fitness (ln).
**Result** -3.93

**Query** Param item = CCACAGCAAUAUUACGCAUC ; retrieve measured self-splicing fitness (ln).
**Result** -3.23

**Query** Param item = CGGCAGCAAUAUUACGUUAC ; retrieve measured self-splicing fitness (ln).
**Result** -3.4

**Query** Param item = GACUAGCAAUAUUACGGGUG ; retrieve measured self-splicing fitness (ln).
**Result** -1.25

**Query** Param item = CACCAGCAAUAUUACGCCGU ; retrieve measured self-splicing fitness (ln).
**Result** -2.65

**Query** Param item = UCUGAGCAAUAUUACGGGUU ; retrieve measured self-splicing fitness (ln).
**Result** -2.32

Origin of measurements: the supplement of paper PMC7877785
